# System: Hepatitis C virus
# assay.summary: Antiviral activity against Hepatitis C virus genotype 1b infected in human HuH5.2 cells after 72 hrs by luciferase reporter gene assay
# Assay type: functional, cell-based, Hepacivirus hominis
# condition.set: Hepatitis C virus, genotype 1b, Huh-5-2, 72 h
property: EC50

# annotated cases, reported EC50 shown
O=C(Nc1ccc(S(=O)(=O)O)c2ccccc12)c1ccc(C(=O)Nc2ccc(S(=O)(=O)O)c3ccccc23)cc1; > 86 µM
COc1cc2nc(CN3CCC(C(N)=O)CC3)[nH]c(=O)c2cc1OC; > 144 µM
COc1ccc(C(N)=O)cc1NS(=O)(=O)c1cccc2cccnc12; > 140 µM

Let's switch to this molecule now.
Give EC50 (Hepatitis C virus) of the following molecule: `CCOc1ccc2sc(NS(=O)(=O)c3ccc(OC)c(OC)c3)nc2c1`
> 127 µM

====

# assay.summary: Selectivity index, ratio of CC50 for human HuH5.2 cells to EC50 for hepatitis C virus genotype 1b infected in human HuH5.2 cells
# Assay type: toxicity, cell-based
# condition.set: HuH5.2 cells, read-out: Ratio CC50/EC50
property: selectivity ratio

O=C(NNc1ncnc2sc3c(c12)CCCC3)c1cccc(O)c1; > 1.4
C/C(=N\Nc1ncnc2sc3c(c12)CCCC3)c1cccnc1; > 3.9
C/C(=N\Nc1nc(C)nc2sc3c(c12)CCCC3)c1cnccn1; > 42.7
O=C(NNc1ncnc2sccc12)c1ccccc1O; > 27
O=C(NNc1ncnc2sc3c(c12)CCCC3)c1cccnc1; > 2.4

Consider the compound `O=C(/C=C(/C(=O)O)c1ccccc1)Nc1ccc(N2CCN(CCO)CC2)cc1` and give its measured selectivity ratio.
> 0.19

Query CCOc1cc(C2C(C(=O)OC)=C(C)NC3=C2C(=O)CC(c2ccc(OC)c(OC)c2)C3)ccc1O (centres undefined) next
> 2.8

Query `O=S(=O)(Nc1ccc(O)c(Sc2ncn[nH]2)c1)c1cccc2ccccc12` next
> 2.9

Query `Cc1nc(NNC(=O)c2ccccn2)c2c3c(sc2n1)CCCC3` next
> 38.1

====

# System: Hepatitis C virus
# assay.summary: Antiviral activity against Hepatitis C virus genotype 1b infected in human HuH5.2 cells after 72 hrs by luciferase reporter gene assay
# Assay type: functional, cell-based, Hepacivirus hominis
# condition.set: Hepatitis C virus, genotype 1b, Huh-5-2, 72 h
pEC50: −log10 of the molar value.
property: pEC50

# annotated cases, reported pEC50 shown
C/C(=N\Nc1ncnc2sc3c(c12)CCCC3)c1ccccc1O; 5.59
C/C(=N\Nc1ncnc2sc3c(c12)CCCC3)c1nc2ccccc2[nH]1; 5.62
C/C(=N/Nc1ncnc2sccc12)c1cnccn1; 5.30

A. O=C(NNc1ncnc2sc3c(c12)CCC3)c1cc(O)ccc1O
B. O=S(=O)(Nc1ccc(O)c(Sc2ncn[nH]2)c1)c1cccc2ccccc12
C. COc1cccc(C2=Nn3c(CN4CCC(C)CC4)nnc3SC2)c1
D. O=C(NNc1ncnc2sc3ccccc3c12)c1cc(O)ccc1O
Sort by pEC50, descending. To answer, write out the labels according to the requested order.
D, A, B, C
(D: 6.17, A: 5.63, B: 4.37, C: 3.89)

A. CCOc1cc(C2C(C(=O)OC)=C(C)NC3=C2C(=O)CC(c2ccc(OC)c(OC)c2)C3)ccc1O (centres undefined)
B. O=C(NNc1ncnc2sc3c(c12)CCC3)c1ccccc1O
C. O=C(NNc1ncnc2sc3c(c12)CCCC3)c1cccc(O)c1
Sort by pEC50, descending. To answer, write out the labels according to the requested order.
B, A, C

P. O=C(NNc1ncnc2sc3ccccc3c12)c1ccccn1
Q. C/C(=N\Nc1nc(C)nc2sc3c(c12)CCCC3)c1ccccc1O
R. O=C(NNc1ncnc2sc3c(c12)CCC3)c1ccccn1
S. C/C(=N/Nc1ncnc2sccc12)c1cc(O)ccc1O
T. COc1ccc(OC)c(/C(C)=N/Nc2ncnc3sc4c(c23)CCCC4)c1
Put the molecules in ascending order of pEC50. To answer, write out the labels according to the requested order.
Q, T, S, R, P
(Q: 3.94, T: 4.27, S: 5.55, R: 6.13, P: 6.34)

P. O=C(NNc1ncnc2sc3c(c12)CCCC3)c1ccc2ccccc2n1
Q. C/C(=N/Nc1ncnc2sc3c(c12)CCC3)c1nc2ccccc2[nH]1
Please indicate which item has the smaller measured pEC50: P versus Q Let me know the label of the one you choose.
P
(P: 4.78, Q: 6.10)

====

# assay.summary: Cytotoxicity against human HuH5.2 cells assessed as reduction in metabolic activity after 72 hrs by MTS assay
# Assay type: toxicity, cell-based, Huh-5-2
# condition.set: HuH5.2 cells
property: CC50 at 72 h (µM)
Please state the figure in µM; there is no need to write the unit.

C/C(=N\Nc1ncnc2sc3c(c12)CCCC3)c1ccccc1O; 154
C/C(=N\Nc1ncnc2sc3ccccc3c12)c1nc2ccccc2[nH]1; 19.1
C/C(=N\Nc1ncnc2sc3c(c12)CCCC3)c1ccccn1; 7.59

Consider the compound `O=C(NNc1ncnc2sccc12)c1cnccn1` and give its measured CC50 at 72 h.
233

Query `C/C(=N/Nc1ncnc2sc3c(c12)CCC3)c1cnccn1` next
1.12

Query `CCc1ccc(S(=O)(=O)Nc2cc3c(C(=O)OC)c(C)oc3c3ccccc23)cc1` next
4.7

Query `O=C(NNc1ncnc2sc3ccccc3c12)c1ccccn1` next
1.54

Query `C/C(=N\Nc1ncnc2sc3c(c12)CCCC3)c1ccc[nH]1` next
19.5

====

Below, each entry is listed with its recorded IC50.
# assay.summary: Inhibition of protease domain lacking Hepatitis C virus genotype 1b (con1) C-terminal His-tagged NS3 helicase ATP hydrolysis activity using ATP as substrate preincubated followed by substrate addition measured after 15 mins in presence of poly U RNA by malachite green-based assay
# Design: species or system Hepatitis C virus (isolate Con1)

C/C(=N\Nc1ncnc2sc3ccccc3c12)c1ccccc1O; > 1000 µM

Consider the compound `O=C(NNc1ncnc2sc3ccccc3c12)c1cnccn1` and give its measured IC50.
> 1000 µM

Query `O=S(=O)(NNc1ncnc2sc3c(c12)CCCC3)c1ccccn1` next
> 1000 µM

====

Below, each entry is listed with its recorded selectivity ratio.
# assay.summary: Selectivity index, ratio of CC50 for human HuH5.2 cells to EC50 for hepatitis C virus genotype 1b infected in human HuH5.2 cells
# Format: toxicity, cell-based
# condition.set: HuH5.2 cells, read-out: Ratio CC50/EC50

C/C(=N\Nc1ncnc2sc3c(c12)CCCC3)c1cc(Cl)ccc1Cl; > 27.2
COc1ccc(-c2c(C#N)c(SCC(N)=O)nc3c2CCCC3)cc1; > 1.1
C/C(=N\Nc1ncnc2sc3c(c12)CCCC3)c1cccc(O)c1; > 1.1

Let's switch to this compound now.
Consider the compound `COc1cccc(C2=Nn3c(CN4CCC(C)CC4)nnc3SC2)c1` and give its measured selectivity ratio.
> 1.1

====

# Tested on: Hepatitis C virus
# assay.summary: Antiviral activity against Hepatitis C virus genotype 1b infected in human HuH5.2 cells after 72 hrs by luciferase reporter gene assay
# Format: functional, cell-based, Hepacivirus hominis
# condition.set: Hepatitis C virus, genotype 1b, Huh-5-2, 72 h
property: EC90

O=C(NNc1ncnc2sccc12)c1cnccn1; 2.28 µM

Let's switch to this compound now.
Consider the compound `COc1cccc(C2=Nn3c(CN4CCC(C)CC4)nnc3SC2)c1` and give its measured EC90.
> 139 µM

====

# assay.summary: Selectivity index, ratio of CC50 for human HuH5.2 cells to EC50 for hepatitis C virus genotype 1b infected in human HuH5.2 cells
# Type: toxicity, cell-based
# condition.set: HuH5.2 cells, read-out: Ratio CC50/EC50
property: selectivity ratio

# annotated cases, reported selectivity ratio shown
C/C(=N\Nc1nc(C)nc2sc3c(c12)CCCC3)c1ccccc1O; > 2.5
CCc1sc2ncnc(N/N=C(/C)c3cc(O)ccc3O)c2c1C; > 364
Cc1c(Cl)sc2ncnc(NNC(=O)c3ccccn3)c12; > 106

Consider the compound `C/C(=N\Nc1ncnc2sc3c(c12)CCC3)c1cc(O)ccc1O` and give its measured selectivity ratio.
> 20.6

Query `O=C(CCN1C(=O)c2cccc3cccc(c23)C1=O)N1CCN(Cc2ccc3c(c2)OCO3)CC1` next
> 3.3

Query `CCOc1cc(C)c(S(=O)(=O)N2CCN(Cc3ccc4c(c3)OCO4)CC2)cc1C` next
> 3.4

====

# assay.summary: Cytotoxicity against human HuH5.2 cells assessed as reduction in metabolic activity after 72 hrs by MTS assay
# Type: toxicity, cell-based, Huh-5-2
# condition.set: HuH5.2 cells
property: CC50 at 72 h

C/C(=N\Nc1nc(C)nc2sc3c(c12)CCCC3)c1ccccc1O; > 284 µM
O=C(NNc1ncnc2sc3c(c12)CCCC3)c1cccnc1; > 307 µM

Consider the compound `O=C(/C=C(/C(=O)O)c1ccccc1)Nc1ccc(N2CCN(CCO)CC2)cc1` and give its measured CC50 at 72 h.
> 126 µM

Query `COc1ccc(C(N)=O)cc1NS(=O)(=O)c1cccc2cccnc12` next
> 140 µM
